B1: tRNA (parent)
chain: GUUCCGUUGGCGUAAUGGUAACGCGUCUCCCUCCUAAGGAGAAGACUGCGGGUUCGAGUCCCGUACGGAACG

# Variants of: B1
# Experimental details: yeast fitness relative to wild type (ratio to wild type); higher = fitter; tRNA-Arg(CCU), competitive growth, 37 C, YPD
This sample holds only a part of the variants without activity.
Label Yes for high-side yeast fitness (at or above 0.6) and No for low-side yeast fitness (below it).

Data request: Evaluate C11G G25A G56A C60A C62U G68C : yeast fitness at minimum 0.6?
Data returned: No

Data request: Evaluate G63U A69U : yeast fitness at minimum 0.6?
Data returned: Yes

Data request: Evaluate C33U C34G A40G : yeast fitness at minimum 0.6?
Data returned: Yes

Data request: Evaluate A14C G17C G18A G23C : yeast fitness at minimum 0.6?
Data returned: No

Data request: Evaluate A21U A36C G39A : yeast fitness at minimum 0.6?
Data returned: No

Data request: Evaluate G12A G58C : yeast fitness at minimum 0.6?
Data returned: Yes

Data request: Evaluate C5G U16C C31U : yeast fitness at minimum 0.6?
Data returned: Yes

Data request: Evaluate C5U G44C G68U : yeast fitness at minimum 0.6?
Data returned: Yes

Data request: Evaluate C11U U26G U35C G63A A70G : yeast fitness at minimum 0.6?
Data returned: No

Data request: Evaluate G23C U53A A65U : yeast fitness at minimum 0.6?
Data returned: No

Data request: Evaluate C24G C29U G51C C66U : yeast fitness at minimum 0.6?
Data returned: No

Data request: Evaluate A15C C27U C30U U32G U35A A37C A57U : yeast fitness at minimum 0.6?
Data returned: No

Data request: Evaluate A14U G41C : yeast fitness at minimum 0.6?
Data returned: No

Data request: Evaluate U26A C66A A70U : yeast fitness at minimum 0.6?
Data returned: No

Data request: Evaluate A20U G23A C31U G39A : yeast fitness at minimum 0.6?
Data returned: No

Data request: Evaluate C5G C11U A42G C49U : yeast fitness at minimum 0.6?
Data returned: No

Data request: Evaluate C11U C27A U54G : yeast fitness at minimum 0.6?
Data returned: No

Data request: Evaluate A21G C27A : yeast fitness at minimum 0.6?
Data returned: Yes

Data request: Evaluate G17A G25A C34U C55G : yeast fitness at minimum 0.6?
Data returned: No

Data request: Evaluate C11G U16G G38C U54A C66A : yeast fitness at minimum 0.6?
Data returned: Yes

Data request: Evaluate A36U G48C C66U : yeast fitness at minimum 0.6?
Data returned: No
